Hey, just so you know, these numbers are from patent US7968570B2.

# Measured target: human mGluR2 receptor (Homo sapiens)
# Construct: expressed in transfected cells
# Sequence (Q14416 19-872): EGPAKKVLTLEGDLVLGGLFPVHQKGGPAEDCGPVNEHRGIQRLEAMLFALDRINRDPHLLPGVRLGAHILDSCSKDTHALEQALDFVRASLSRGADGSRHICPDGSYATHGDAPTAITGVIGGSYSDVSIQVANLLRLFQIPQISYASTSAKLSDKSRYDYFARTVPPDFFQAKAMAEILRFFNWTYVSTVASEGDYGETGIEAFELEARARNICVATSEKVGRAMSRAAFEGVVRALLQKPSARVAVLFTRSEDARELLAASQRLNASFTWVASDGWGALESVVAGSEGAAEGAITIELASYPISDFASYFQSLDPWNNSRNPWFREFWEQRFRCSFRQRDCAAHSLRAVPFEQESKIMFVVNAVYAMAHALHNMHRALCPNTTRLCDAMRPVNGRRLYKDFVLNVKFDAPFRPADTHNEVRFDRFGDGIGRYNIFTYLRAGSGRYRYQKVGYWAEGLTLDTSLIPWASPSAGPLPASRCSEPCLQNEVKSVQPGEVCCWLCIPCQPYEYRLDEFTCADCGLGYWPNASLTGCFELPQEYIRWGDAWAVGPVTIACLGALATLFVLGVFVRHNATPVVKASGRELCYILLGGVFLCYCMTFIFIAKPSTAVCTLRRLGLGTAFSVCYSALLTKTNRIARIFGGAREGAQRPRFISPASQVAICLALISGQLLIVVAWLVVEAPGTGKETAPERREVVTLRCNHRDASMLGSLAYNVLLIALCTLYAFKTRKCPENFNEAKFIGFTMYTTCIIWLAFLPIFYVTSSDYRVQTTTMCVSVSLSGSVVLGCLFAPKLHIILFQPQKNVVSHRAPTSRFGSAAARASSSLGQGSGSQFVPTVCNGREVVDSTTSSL
# Experimental protocol: [35S]-GTPγS binding assay of mGluR2 receptor activation
# Type: biochemical
# Test parameters: membranes from CHO cells stably expressing human mGluR2; 1 μM glutamate
# Experimental: A [^35S]-GTPγS binding assay was used to functionally assay mGluR2 receptor activation. The allosteric activator activity of compounds at the human mGluR2 receptor were measured using a [^35S]-GTPγS binding assay with membranes prepared from CHO cells which stably express the human mGluR2. […] The GTPγS binding assay therefore provides a quantitative measure of receptor activation. […]
This listing pairs compounds with measured pEC50.
Please note pEC50 is a logarithmic value: minus log10 of concentration in mol/L. Answer with that number alone.

Example results:
CCN(CC)C(=O)C1CCCN(Cc2cc(C)c3c(c2)CN(Cc2ccc(OC(F)(F)F)cc2)C3=O)C1 (stereo not drawn)
5.74
Cc1cc(CN2CC=CC2)cc2c1C(=O)N(Cc1ccc(OC(F)(F)F)cc1)C2
5.62

Here is another compound to look at.
Give measured pEC50 for Cc1cc(CN2CCC(n3c(=O)[nH]c4ccccc43)CC2)cc2c1C(=O)N(Cc1ccc(OC(F)(F)F)cc1)C2 (human mGluR2 receptor (Homo sapiens)).
7.22
